Reference source: PubChem BioAssay AID2060891

Tested on: K98450-129-R-PDC complex spheroid growth, percent test/control;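 also: luminescence used as a proxy for viable cell amount; spheroids exposed to agents for seven days before the viability readout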
Assay text: Anticancer human tumor K98450-129-R-PDC patient-derived colon adenocarcinoma cell line growth inhibition [RAS]
Setup conditions: second compound 1 µM; first compound 0.01 µM; stronger effect = lower value
viability, T/C for assorted molecules

Use these answered entries as a reference point.
CC(C)n1nc(-c2ccc3oc(N)nc3c2)c2c(N)ncnc21 + C#Cc1c(F)ccc2cc(O)cc(-c3ncc4c(N5CC6CCC(C5)N6)nc(OCC56CCCN5CC(F)C6)nc4c3F)c12 :: 93.8%
CCN1CCN(Cc2ccc(Nc3ncc(F)c(-c4cc(F)c5nc(C)n(C(C)C)c5c4)n3)nc2)CC1 + C=CC(=O)N1CCN(c2nc(OCC3CCCN3C)nc3c(F)c(-c4nc(N)cc(C)c4C(F)(F)F)c(Cl)cc23)C(C)C1 :: 32.1%

In: Entry C=CC(=O)Nc1cc(Nc2nccc(-c3cn(C)c4ccccc34)n2)c(OC)cc1N(C)CCN(C)C + C=CC(=O)N1CCN(c2nc(OCC3CCCN3C)nc3c(F)c(-c4nc(N)cc(C)c4C(F)(F)F)c(Cl)cc23)C(C)C1 has what viability, T/C?
Out: 27.1%
